In this section we review reported pKd values for a set of binders.
Target: T1, huCD3e-mFc (human, UniProt P07766 23-126)
T1 construct: not shown: mFc, not described
T1 sequence (P07766 23-126): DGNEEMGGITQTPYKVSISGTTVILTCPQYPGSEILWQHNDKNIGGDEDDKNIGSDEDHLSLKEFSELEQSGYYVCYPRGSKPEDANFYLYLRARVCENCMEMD
Assay: Pool 3 screen
Just the number, please; pKd means minus log10 of the concentration in mol/L.

These solved cases illustrate the format of a correct answer.
BINDER: AC3811 (CD3.307) (scFv, V domains shown, Pool 3 format (remarks)) VH: EVQLVESGGGIVQPGGSLRLSCAASGFTFSTYAMNWVRQAPGKGLEWVGRIRTKRNDYATYYADSVKGRFTISRDDSKNTAYLQMNSLKTEDTAVYYCVRHENFGNSYVSWFAHWGQGTLVTVSS VL: ELVVTQEPSLTVSPGGTVTLTCRSSNGAVTSSNYANWVQQKPGQAPRGLIGGTNKRAPGTPARFSGSLDGGKAALTLSGVQPEDEAVYYCALWYPNLWVFGGGTKLTVL
pKd: 8.20
--
BINDER: AC3819 (CD3.315) (scFv, V domains shown, Pool 3 format (remarks)) VH: EVQLVESGGGIVQPGGSLRLSCAASGFTFSTYAMNWVRQAPGKGLEWVGRIRTKRNDYATYYADSVKGRFTISRDDSKNTLYLQMNSLKTEDTAVYYCVRHENFGNSYVSWFAHWGQGTLVTVSS VL: ELVVTQEPSLTVSPGGTVTLTCRSSNGAVTSSNYANWVQQKPGQAPRGLIGGTNKRAPGTPARFSGSLGGGKAALTLSGVQPEDEAVYYCALWYPNLWVFGGGTKLTVL
pKd: 8.47
--
BINDER: AC3804 (CD3.300) (scFv, V domains shown, Pool 3 format (remarks)) VH: EVQLVESGGGIVQPGGSLRLSCAASGFTFSTYAMNWVRQAPGKGLEWVGRIRTKRNNYATYYADSVKGRFTISRDDSKNTVYLQMNSLKTEDTAVYYCVRHENFGNSYVSWFAHWGQGTLVTVSS VL: ELVVTQEPSLTVSPGGTVTLTCRSSNGAVTSSNYANWVQQKPGQAPRGLIGGTNKRAPGTPARFSGSLLEGKAALTLSGVQPEDEAVYYCALWYPNLWVFGGGTKLTVL
pKd: 7.44

Ask: Which pKd is reported for this binder? AC3839 (CD3.335) (scFv, V domains shown, Pool 3 format (remarks)) VH: EVQLVESGGGIVQPGGSLRLSCAASGFTFNTYAMNWVRQAPGKGLEWVGRIRTKTNDYATYYADSVKGRFTISRDDSKNTAYLQMNSLKTEDTAVYYCVRHENFGNSYVSWFAHWGQGTLVTVSS VL: ELVVTQEPSLTVSPGGTVTLTCRSSNGAVTSSNYANWVQQKPGQAPRGLIGGTNKRAPGTPARFSGSLLGGKAGLTLSGVQPEDEAVYYCALWYPNLWVFGGGTKLTVL
Reply: 7.61

Ask: Also, AC3822 (CD3.318) (scFv, V domains shown, Pool 3 format (remarks)) VH: EVQLVESGGGIVQPGGSLRLSCAASGFTFSTYAMNWVRQAPGKGLEWVGRIRTKRNDYATYYADSVKGRFTISRDDSKNTLYLQMNSLKTEDTAVYYCVRHENFGNSYVSWFAHWGQGTLVTVSS VL: ELVVTQEPSLTVSPGGTVTLTCRSSNGAVTSSNYANWVQQKPGQAPRGLIGGTNKRAPGTPARFSGSLLEGKAALTLSGVQPEDEAVYYCALWYPNLWVFGGGTKLTVL please.
Reply: 8.27
